# assayComment: Water solubility by RP-HPLC
# Assay type: ADME
measurementType: solubility (µg/mL)

| compound | measurementType | valueObserved |
| --- | --- | --- |
| Cc1cccc(C)c1OCC(=O)N[C@@H](Cc1ccccc1)[C@H](OC(=O)CCCC(=O)NCC(=O)OCC1OC(n2cc(C)c(=O)[nH]c2=O)CC1N=[N+]=[N-])C(=O)N1CSC(C)(C)[C@H]1C(=O)NC(C)(C)C (some centres undefined) | solubility | 371 |
| Cc1cccc(C)c1OCC(=O)N[C@@H](Cc1ccccc1)[C@H](OC(=O)CCC(=O)NCC(=O)OCC1OC(n2cc(C)c(=O)[nH]c2=O)CC1N=[N+]=[N-])C(=O)N1CSC(C)(C)[C@H]1C(=O)NC(C)(C)C (some centres undefined) | solubility | 290 |

(a) Cc1cccc(C)c1OCC(=O)N[C@@H](Cc1ccccc1)[C@H](OC(=O)CCCC(=O)NCCC(=O)OCC1OC(n2cc(C)c(=O)[nH]c2=O)CC1N=[N+]=[N-])C(=O)N1CSC(C)(C)[C@H]1C(=O)NC(C)(C)C (some centres undefined)
(b) Cc1cccc(C)c1OCC(=O)N[C@@H](Cc1ccccc1)[C@H](OC(=O)CCC(=O)NCCC(=O)OCC1OC(n2cc(C)c(=O)[nH]c2=O)CC1N=[N+]=[N-])C(=O)N1CSC(C)(C)[C@H]1C(=O)NC(C)(C)C (some centres undefined)
Pick one: a or b . Which has the bigger solubility number? Output the label that corresponds to your choice.
b
(b: 373 µg/mL, a: 235 µg/mL)

---

# Tested on: Human immunodeficiency virus 1
# assayComment: Relative potency of compound to that of AZT was determined
measurementType: Relative potency

Worked cases, answers included:
| compound | Relative potency |
| --- | --- |
| Cc1cccc(C)c1OCC(=O)N[C@@H](Cc1ccccc1)[C@H](OC(=O)CCC(=O)NCCC(=O)OCC1OC(n2cc(C)c(=O)[nH]c2=O)CC1N=[N+]=[N-])C(=O)N1CSC(C)(C)[C@H]1C(=O)NC(C)(C)C (some centres undefined) [KNI-1046] | 6.2 |
| Cc1cccc(C)c1OCC(=O)N[C@@H](Cc1ccccc1)[C@H](OC(=O)CCCC(=O)NCCC(=O)OCC1OC(n2cc(C)c(=O)[nH]c2=O)CC1N=[N+]=[N-])C(=O)N1CSC(C)(C)[C@H]1C(=O)NC(C)(C)C (some centres undefined) | 1.8 |

(a) Cc1cccc(C)c1OCC(=O)N[C@@H](Cc1ccccc1)[C@H](OC(=O)CCC(=O)NCC(=O)OCC1OC(n2cc(C)c(=O)[nH]c2=O)CC1N=[N+]=[N-])C(=O)N1CSC(C)(C)[C@H]1C(=O)NC(C)(C)C (some centres undefined) [KNI-1038]
(b) Cc1cccc(C)c1OCC(=O)N[C@@H](Cc1ccccc1)[C@H](OC(=O)CCCC(=O)NCC(=O)OCC1OC(n2cc(C)c(=O)[nH]c2=O)CC1N=[N+]=[N-])C(=O)N1CSC(C)(C)[C@H]1C(=O)NC(C)(C)C (some centres undefined) [KNI-1039]
Pick one: a or b . Which has the bigger Relative potency number? Output the label that corresponds to your choice.
b

---

# system: Human immunodeficiency virus type 1 protease (Human immunodeficiency virus 1)
# assayComment: Inhibitory activity against HIV protease; Active
The source made the active and inactive calls. The rule behind the calls is not given here.
measurementType: Activity

| molecule | measurementType | valueObserved |
| --- | --- | --- |
| Cc1ccccc1CNC(=O)[C@H]1N(C(=O)[C@@H](O)[C@H](Cc2ccccc2)NC(=O)CC(C)(C)C(=O)O)CSC1(C)C | Activity | Active |
| Cc1cn(C2CC(N=[N+]=[N-])C(COC(=O)C(C)(C)CC(=O)N[C@H](Cc3ccccc3)[C@@H](O)C(=O)N3CSC(C)(C)[C@H]3C(=O)NC(C)(C)C)O2)c(=O)[nH]c1=O (some centres undefined) | Activity | Active |
| Cc1cccc(C)c1OCC(=O)N[C@@H](Cc1ccccc1)[C@H](OC(=O)CCC(=O)O)C(=O)N1CSC(C)(C)[C@H]1C(=O)NC(C)(C)C | Activity | Active |
| Cc1ccccc1CNC(=O)[C@H]1N(C(=O)[C@H](O)[C@@H](Cc2ccccc2)NC(=O)CC(C)(C)C(=O)OCC2OC(n3cc(C)c(=O)[nH]c3=O)CC2N=[N+]=[N-])CSC1(C)C (some centres undefined) | Activity | Active |
